Recorded EC50, one value per entry.
Tested on: HCV genotype 1b (Con1) replicon in HUH-7 cells
test: HCV replicon luciferase reporter assay, genotype 1b
Assay type: cell-based
experimental conditions: Hepatitis C virus, Huh-7, 72 h, HCV genotype 1b replicon luciferase, 3 days incubation, read-out: LE_1b (EC50, range)

- molecule: "CCn1nc(O[C@@H]2C[C@H]3C(=O)N[C@]4(C(=O)NS(=O)(=O)C5(C)CC5)C[C@H]4/C=C\\CC[C@@H](C)C[C@@H](C)[C@H](NC(=O)OC(C)(C)C)C(=O)N3C2)c2ccccc2c1=O [Compound 5065]"
  EC50: "< 5.46 nM"
- molecule: "COc1cc2nc(C(F)(F)F)c(OC)nc2cc1O[C@@H]1C[C@H]2C(=O)N[C@]3(C(=O)NS(=O)(=O)C4(C)CC4)C[C@H]3/C=C\\CC[C@@H](C)C[C@@H](C)[C@H](NC(=O)OC(C)(C)C)C(=O)N2C1 [Compound 4351]"
  EC50: "1.01 to 5 nM"
- molecule: "CC[C@@H]1C[C@H](C)CC/C=C\\[C@@H]2C[C@@]2(C(=O)NS(=O)(=O)C2(C)CC2)NC(=O)[C@@H]2C[C@@H](Oc3ncc(OC)c4ccccc34)CN2C(=O)[C@H]1NC(=O)OC(C)(C)C(C)(F)F [Compound 5437]"
  EC50: "0.1 to 0.5 nM"
- molecule: "C[C@@H]1CC/C=C\\[C@@H]2C[C@@]2(C(=O)NS(=O)(=O)C2CC2)NC(=O)[C@@H]2C[C@@H](Oc3nccc4c5c(ccc34)N(C)CCO5)CN2C(=O)[C@@H](NC(=O)c2ccc(N(C)C)cc2)[C@H](C)C1 [Compound 5290]"
  EC50: "< 5.46 nM"
- molecule: "CC[C@@H]1C[C@H](C)CC/C=C\\[C@@H]2C[C@@]2(C(=O)NS(=O)(=O)C2CC2)NC(=O)[C@@H]2C[C@@H](Oc3nc4cc(OC)ccc4nc3C(C)C)CN2C(=O)[C@H]1NC(=O)OC(C)(C)C [Compound 4272]"
  EC50: "1.01 to 5 nM"
- molecule: "CCCOc1cnc(O[C@@H]2C[C@H]3C(=O)N[C@]4(C(=O)NS(=O)(=O)C5(C)CC5)C[C@H]4/C=C\\CC[C@@H](C)C[C@@H](C)[C@H](NC(=O)OC(C)(C)C)C(=O)N3C2)c2ccccc12 [Compound 5079]"
  EC50: "< 5.46 nM"
- molecule: "COc1ccc2c(O[C@@H]3C[C@H]4C(=O)N[C@]5(C(=O)NS(=O)(=O)C6(C)CC6)C[C@H]5/C=C\\CC[C@H](C)C[C@@H](C)[C@H](NC(=O)OC(C)(C)C(C)(F)F)C(=O)N4C3)nc(-c3ccc(OC(C)C)cc3)c(OC)c2c1 [Compound 5345]"
  EC50: "< 5.46 nM"
- molecule: "COc1nnc(O[C@@H]2C[C@H]3C(=O)N[C@]4(C(=O)NS(=O)(=O)C5CC5)C[C@H]4/C=C\\CC[C@H](C)C[C@@H](C)[C@H](NC(=O)OC(C)(C)C(F)(F)F)C(=O)N3C2)c2ccccc12 [Compound 5005]"
  EC50: "< 5.46 nM"
- molecule: "CC[C@@H]1C[C@H](C)CC/C=C\\[C@@H]2C[C@@]2(C(=O)NS(=O)(=O)C2CC2)NC(=O)[C@@H]2C[C@@H](Oc3ncc(OC)c4ccccc34)CN2C(=O)[C@H]1NC(=O)OC(C)(C)C(C)(F)F [Compound 5439]"
  EC50: "0.1 to 0.5 nM"
- molecule: "[2H]C([2H])([2H])C(OC(=O)N[C@@H]1C(=O)N2C[C@H](Oc3nccc4cc(OCCC)ccc34)C[C@H]2C(=O)N[C@]2(C(=O)NS(=O)(=O)C3CC3)C[C@H]2/C=C\\CC[C@H](C)C[C@H]1C)(C([2H])([2H])[2H])C(F)(F)F [Compound 5172]"
  EC50: "< 5.46 nM"
- molecule: "COc1ccc2c(O[C@@H]3C[C@H]4C(=O)N[C@]5(C(=O)NS(=O)(=O)C6(F)CC6)C[C@H]5/C=C\\CC[C@@H](C)C[C@@H](C)[C@H](NC(=O)OC(C)C)C(=O)N4C3)nccc2c1 [Compound 4016]"
  EC50: "< 5.46 nM"
- molecule: "CC(C)Oc1ccc2c(O[C@@H]3C[C@H]4C(=O)N[C@]5(C(=O)NS(=O)(=O)C6(C)CC6)C[C@H]5/C=C\\CC[C@@H](C)C[C@@H](C)[C@H](NC(=O)O[C@H](C)C(F)(F)F)C(=O)N4C3)nccc2c1 [Compound 5161]"
  EC50: "< 5.46 nM"
- molecule: "CC[C@@H]1C[C@H](C)CC/C=C\\[C@@H]2C[C@@]2(C(=O)NS(=O)(=O)C2(C)CC2)NC(=O)[C@@H]2C[C@@H](Oc3nc(-c4ccc(OC(C)C)cn4)cc4cc(OC)ccc34)CN2C(=O)[C@H]1NC(=O)OC(C)(C)C [Compound 5481]"
  EC50: "1.01 to 5 nM"
- molecule: "COc1cc2c(OC)cnc(O[C@@H]3C[C@H]4C(=O)N[C@]5(C(=O)NS(=O)(=O)C6(CF)CC6)C[C@H]5/C=C\\CC[C@@H](C)C[C@@H](C)[C@H](NC(=O)C5(C(F)(F)F)CC5)C(=O)N4C3)c2cc1F [Compound 4119]"
  EC50: "< 5.46 nM"
- molecule: "CC[C@@H]1C[C@H](C)CC/C=C\\[C@@H]2C[C@@]2(C(=O)NS(=O)(=O)C2(CF)CC2)NC(=O)[C@@H]2C[C@@H](Oc3nc4c(c5cc(OC)ccc35)CCCO4)CN2C(=O)[C@H]1NC(=O)OC(C)(C)C(C)(F)F [Compound 6088]"
  EC50: "5.01 to 35 nM"
- molecule: "CC[C@@H]1C[C@H](C)CC/C=C\\[C@@H]2C[C@@]2(C(=O)NS(=O)(=O)C2(C)CC2)NC(=O)[C@@H]2C[C@@H](Oc3ncc(F)c4cc(OC)ccc34)CN2C(=O)[C@H]1NC(=O)OC(C)(C)C [Compound 4383]"
  EC50: "0.51 to 1 nM"
- molecule: "COc1ccc2c(O[C@@H]3C[C@H]4C(=O)N[C@]5(C(=O)NS(=O)(=O)C6CC6)C[C@H]5/C=C\\CC[C@@H](C)C[C@@H](C)[C@H](NC(=O)OC(C)(C)C(C)(F)F)C(=O)N4C3)nc(-c3ccc(OC(C)C)cn3)cc2c1 [Compound 5475]"
  EC50: "0.51 to 1 nM"
